Origin of measurements: the supplement of paper PMC10567573

Test: protein stability index of a GFP-peptide fusion (GPS, HEK-293T) (PSI 1-6); higher = more stable;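 note: 24-mer peptide tiles fused after GFP, lentivirally expressed, FACS-sorted into six equal bins by GFP/DsRed ratio, decoded by Illumina sequencing, PSI is the read-weighted mean bin number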
Conditions: treatment: DMSO; c terminus: a fixed tail appended

# SEQUENCE_INPUT, protein stability index
rows = [
    ("INQLTFIMDANQTYLVSERLEREE [FAF2]", 3.17),
    ("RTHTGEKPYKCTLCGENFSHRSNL [ZNF263]", 2.43),
    ("LIFFLFIGVILFSSAVYFAEADEP [KCNA4]", 2.19),
    ("AGRAAAPELSYRVCVGSDVTSIHK [MYORG]", 3.32),
    ("RVRGLGLPKLYLPTGPRRGRDELG [CDKN1A]", 3.33),
    ("QAKTHTDSSEKELEPEAAEEALEN [ACBD3]", 5.52),
    ("DRVGTIKSKVVGDRENGSDNLPSS [TPD52L2]", 5.17),
    ("EDQHKLYQQIKAGAYDFPSPEWDT [CAMK2B]", 4.79),
    ("MEEDIDTRKINNSFLRDHSYATEA [PPP2R2B]", 4.77),
    ("ANHVFFLLYLLHILLLDGAAWLTL [FADS1]", 3.23),
    ("ESDYTYSSSYEQFNGELPNGRHKI [SRPK2]", 4.04),
    ("GHCLLDKPEAPLHLPVTFPGKDYD [ADAMTS4]", 4.14),
    ("PHPDLPAEEKEQLLHNDEYQETMV [USP39]", 5.35),
    ("SVKKQGETVADVRTLPNASTVDNI [MLH1]", 5.12),
    ("GSKKKFDKCMVCGGDGSGCSKQSG [ADAMTS4]", 4.18),
    ("RGTHAVVGVATADAPLHSVGYTTL [SPSB1]", 2.73),
    ("LEQEEERLSKEWEDSKRWSKMDQL [CHGA]", 4.81),
    ("EQDSGVQVEGLTVQYLGQAPELLG [ADAMTS4]", 4.38),
    ("EREASPSNSCQDSTDTESNNEEQR [IKZF1]", 5.24),
    ("KYRRHFLRFCHNNKKAKRYLLHGL [EIF5]", 2.21),
    ("TVRFCILGKESFYDTFHTVADMMY [HACD3]", 2.8),
    ("TVQHGAVYSLEPRLCGGKGGFGSM [SDE2]", 2.33),
    ("PSAILRTPESTKPGPVCQPPVSQS [ANKRD40]", 4.59),
    ("SLVGNLGISGTTTKKGDLQWNAGE [SNAP91]", 3.54),
    ("ALARLGTVTVISPLELMRTKLQAQ [SLC25A39]", 2.18),
    ("LKDEEAKVLQLTVRCEALTGELET [CCDC89]", 3.86),
    ("KDREYTDIIRKQVLGTKVDAERDG [CDC34]", 5.08),
    ("FFVVETLCIIWFSFELLVRFFACP [KCNA3]", 3.11),
    ("YDDVRRCCSSADICPKCWTLMTMA [PRIM1]", 3.34),
]
